Recorded solubility, one value per entry.
test: Solubility of the compound in water at 1 mg at 20 degC after 24 to 36 hrs by LC-UV-MS analysis; format: physicochemical

- compound: "Fc1ccc(C(Cl)Cn2ncc3c(Nc4cccc(Br)c4)ncnc32)cc1 (racemic)"
  solubility: "0.04 µg/mL"
- compound: "ClC(Cn1ncc2c(Nc3cccc(Br)c3)ncnc21)c1ccccc1 (racemic)"
  solubility: "< 0.01 µg/mL"
- compound: "Fc1ccc(CNc2ncnc3c2cnn3CC(Cl)c2ccc(Cl)cc2)cc1 (racemic)"
  solubility: "< 0.01 µg/mL"
- compound: "Fc1cccc(Nc2ncnc3c2cnn3CC(Cl)c2ccccc2)c1 (racemic)"
  solubility: "0.08 µg/mL"
- compound: "Clc1ccc(CNc2ncnc3c2cnn3CC(Cl)c2ccc(Br)cc2)cc1 (racemic)"
  solubility: "< 0.01 µg/mL"
- compound: "Clc1cccc(CNc2ncnc3c2cnn3CC(Cl)c2ccc(Br)cc2)c1 (racemic)"
  solubility: "< 0.01 µg/mL"
- compound: "ClC(Cn1ncc2c(NCc3ccc(Br)cc3)ncnc21)c1ccc(Br)cc1 (racemic)"
  solubility: "< 0.01 µg/mL"
- compound: "Clc1ccccc1CNc1ncnc2c1cnn2CC(Cl)c1ccc(Br)cc1 (racemic)"
  solubility: "< 0.01 µg/mL"

Cited source for all entries: ChEMBL document CHEMBL2396567
